Test: ICB984 medulloblastoma cell growth inhibition, synergistic combos for chromothripsis tumors, cisplatin or BGB combos (AID 1671451);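 note: cells exposed for 96 hours before readout; 0% = vehicle DMSO and 100% = killing by high DMSO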
Conditions: ICB984 medulloblastoma cells, drug combinations, at 0.5 µM, stronger effect = higher value
OBSERVATION_TYPE: inhibition (%)
One number for each entry, in %.

Recorded results for 3 compounds are shown here.
>  <COMPOUND>
N=c1ccn2c(n1)O[C@H]1[C@H](O)[C@@H](CO)O[C@H]12

>  <UNIT>
%

>  <inhibition>
-19.6

$$$$
>  <COMPOUND>
O=c1[nH]c(=O)n([C@H]2C[C@H](O)[C@@H](CO)O2)cc1Br

>  <UNIT>
%

>  <inhibition>
-24.2

$$$$
>  <COMPOUND>
Nc1ncn([C@H]2C[C@H](O)[C@@H](CO)O2)c(=O)n1

>  <UNIT>
%

>  <inhibition>
-18

$$$$

Hey, quick one: what's inhibition for each of these?
1. CN1C[C@@H]2C[C@H]1CN2c1cc2c(cc1F)c(=O)c(C(=O)O)cn2C1CC1
2. CN(N=O)C(=O)NC1C(O)OC(CO)C(O)C1O (centres undefined)
3. CCOC(=O)Nc1ccc(NCc2ccc(F)cc2)nc1N

Key:
-31.1
-5.69
-14.8

Look up inhibition for the entries below, preserving their order.
1. C[C@@H](CN1CC(=O)NC(=O)C1)N1CC(=O)NC(=O)C1
2. CN1CCN(c2c(F)cc3c(=O)c(C(=O)O)cn4c3c2OCN4C)CC1
3. Nc1ccc2cc3ccc(N)cc3nc2c1
4. O=c1[nH]c(=O)n([C@H]2C[C@H](O)[C@@H](CO)O2)cc1C(F)(F)F
5. O=c1cc[nH]c(=O)[nH]1
6. CN1CCN(c2c(F)cc3c(=O)c(C(=O)O)cn(CCF)c3c2F)CC1
7. O=C(CCCCCCC(=O)Nc1ccccc1)NO

Key:
1: -30.5; 2: -28.8; 3: -20.2; 4: -27.9; 5: -27; 6: -15.4; 7: -21.1

Exercise: State the recorded inhibition for this entry: "N=C(N=C(N)N)N1CCOCC1"
Key: -14.1

* * *

Test: glucagon-like peptide 1 release enhancers, primary assay, NCI-H716 cell line, NPC library (AID 1117341); note: reference of the scale not given here
Conditions: NCI-H716 cells, at 10 µM
Activity calls are given as the source filed them.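 The calls were made as follows: active = compound raises GLP1 secretion from the human gut endocrine cells, with no numeric limit stated; inactive = the rest.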
Respond using exactly one of the listed classes: active, inactive

Sample answers from the record:
>  <COMPOUND>
CCNC(=O)/C=C/c1cccc(Br)c1

>  <ASSIGNED_LABEL>
inactive

$$$$
>  <COMPOUND>
O=C(O)c1ccc[n+]([O-])c1

>  <ASSIGNED_LABEL>
inactive

$$$$
>  <COMPOUND>
Cc1ccc(/C(=C\CN2CCCC2)c2ccccn2)cc1

>  <ASSIGNED_LABEL>
inactive

$$$$
>  <COMPOUND>
OCC(CO)N[C@H]1C[C@](O)(CO)[C@@H](O)[C@H](O)[C@H]1O

>  <ASSIGNED_LABEL>
inactive

$$$$
>  <COMPOUND>
COc1cc(NCc2ccc3nc(N)nc(N)c3c2C)cc(OC)c1OC

>  <ASSIGNED_LABEL>
inactive

$$$$
>  <COMPOUND>
CCOC(=O)c1cnc2c(cnn2CC)c1NN=C(C)C

>  <ASSIGNED_LABEL>
inactive

$$$$
>  <COMPOUND>
CC(C)(C)C(=O)OCOC(=O)[C@@H]1N2C(=O)[C@@H](NC(=O)[C@H](N)c3ccccc3)[C@H]2SC1(C)C

>  <ASSIGNED_LABEL>
inactive

$$$$
>  <COMPOUND>
CN(C)C(=O)COC(=O)Cc1ccc(OC(=O)c2ccc(N=C(N)N)cc2)cc1

>  <ASSIGNED_LABEL>
inactive

$$$$
>  <COMPOUND>
CC1(C)[C@@H](OC(=O)CCC(=O)O)CC[C@]2(C)[C@H]3C(=O)C=C4[C@@H]5C[C@@](C)(C(=O)O)CC[C@]5(C)CC[C@@]4(C)[C@]3(C)CC[C@@H]12

>  <ASSIGNED_LABEL>
inactive

$$$$
>  <COMPOUND>
CC(C)Nc1cccnc1N1CCN(C(=O)c2cc3cc(NS(C)(=O)=O)ccc3[nH]2)CC1

>  <ASSIGNED_LABEL>
inactive

$$$$

Exercise: For CC(C)(Oc1ccc(C2CC2(Cl)Cl)cc1)C(=O)O (centres undefined) , what call appears in the results of this test?
Key: active

Exercise: Please indicate how the test categorized "CC1(C)Oc2ccc(C#N)cc2[C@@H](N2CCCC2=O)[C@@H]1O" .
Key: inactive

Exercise: Per the records of this test, what outcome belongs to CCCCC(CC)COC(=O)CC(C(=O)OCC(CC)CCCC)S(=O)(=O)O (centres undefined) ?
Key: active

Exercise: Which result was noted for this compound in the test: "COc1ccc(-c2ccc3cc(C(=O)O)ccc3c2)cc1C12CC3CC(CC(C3)C1)C2"
Key: inactive

Exercise: Answer briefly: the call reported for "CN(c1nccc(=O)[nH]1)C1CCN(c2nc3ccccc3n2Cc2ccc(F)cc2)CC1" in this assay.
Key: inactive

Exercise: Which outcome was assigned to CCC(C)(C)c1ccc(CC(C)CN2C[C@@H](C)O[C@@H](C)C2)cc1 (some centres undefined) in this test?
Key: inactive
